test: Cytotoxicity against mouse 9PS cells; assay type: functional; details: Mus musculus; read-out: ED50 (the source's name)
Parameter measured: EC50 (µg/mL)
Please respond with the number in µg/mL and leave the unit unwritten.

Request: Name the recorded EC50 for CCCCCCCCCCCC[C@H](O)[C@@H]1CC[C@@H]([C@@H](O)CCCCC(=O)CCCCCC2CC(CC(C)=O)C(=O)O2)O1 (some centres not stated) [ISOANNONACINONE] .
Result: 0.5

Request: Name the recorded EC50 for COc1cc(O)c2c3c1-c1c(ccc(O)c1O)[C@@H]1Oc4ccccc4[C@@H](CC2=O)[C@@H]31 [OHIOENSIN D] .
Result: 1

Request: Name the recorded EC50 for COc1ccc2c(c1O)-c1c(OC)cc(O)c3c1[C@@H]1[C@H](CC3=O)c3ccccc3O[C@@H]21 [OHIOENSIN E] .
Result: 1

Request: Name the recorded EC50 for O=C1C[C@@H]2c3ccccc3O[C@H]3c4cc(O)ccc4-c4c(O)cc(O)c1c4[C@H]23 [OHIOENSIN A] .
Result: 1

Request: Name the recorded EC50 for CCCCCCCCCCCC[C@H](O)[C@@H]1CC[C@@H]([C@@H](O)CCCCC(O)CCCCCC2CC(CC(C)=O)C(=O)O2)O1 (some centres not stated) [ISOANNONACIN] .
Result: 3

Request: Name the recorded EC50 for O=C1C[C@@H]2c3ccccc3O[C@H]3c4cccc(O)c4-c4c(O)cc(O)c1c4[C@H]23 [OHIOENSIN B] .
Result: 1
